Assay: in vitro
Settings: human, hek293t cells
For each record, write down the corresponding viability at 48 h, 25 µM.
One number for each entry, in %.

Example results:
C=CC(=O)NCc1cnc(-c2ccc(C(F)(F)F)cc2)s1 [1-C13]    75.8
CS(=O)(=O)N1CCc2cc(C(=O)CCl)ccc21 [10-B19]    7.21
O=C(CCl)N1N=C(c2ccc(Cl)cc2)CC1c1ccco1 (stereo not drawn) [5-L04]    -0.215
C=CC(=O)N1CCC(c2ncc(C(=O)O)o2)CC1 [2-G19]    101

Quick request: viability at 48 h, 25 µM for each listed item, please.
1. CC(Cl)C(=O)N1CCCc2c1ccc1c2ncn1C (stereo not drawn) [6-B19]
2. C=CC(=O)N1CCCCC1c1nc2ccccc2o1 (stereo not drawn) [3-O20]
3. C=CC(=O)NC(CN1CCCS1(=O)=O)C1CC1 (stereo not drawn) [1-H10]
4. C=CC(=O)N1CCCC(c2nc(C)no2)C1 (stereo not drawn) [2-K12]
5. O=C1NC(=O)c2cc(NC(=O)N3CCSSCC3)ccc21 [10-K22]
6. C=CC(=O)NCc1cc(-c2cccc(OC)c2)no1 [1-I11]

(A)
[90.9, 82.3, 100, 101, 98.8, 76.7]

Quick request: viability at 48 h, 25 µM for each listed item, please.
1. Cc1cccc(CN(C(=O)CCl)C(C)C)c1 [6-J05]
2. CC1CN(CCCNC(=O)CCl)CC(C)O1 (stereo not drawn) [6-G11]
3. Cc1cccc(Cl)c1CCCNC(=O)CCl [7-F04]
4. COc1ccc(Cl)cc1N1C(=O)C=CC1=O [10-K10]
5. CC1=C(c2ccco2)CN(C(=O)C(C)Cl)CC1 (stereo not drawn) [6-D15]
6. C=CC(=O)NCCn1nnc2ccccc21 [2-N11]

(A)
1: 0.679; 2: 116; 3: 0.614; 4: 81.3; 5: 103; 6: 67.3

Quick request: viability at 48 h, 25 µM for each listed item, please.
1. C=CC(=O)NCc1ccc(C(=O)N2CCC(C(C)(C)O)CC2)cc1 [2-J20]
2. Cc1ccccc1NC(=O)C(C#N)=Cc1cc(C)n(C2CC2)c1C [8-A16]

(A)
1: 74.2; 2: 47.1

* * *

Assay: in vitro
Conditions: human, hek293t cells
Checkbox rule: viability at 48 h, 25 µM lower than 90% = Condition met; viability at 48 h, 25 µM not lower than 90% = Condition not met.

C=CC(=O)Nc1ccc(C(=O)C(F)F)cc1    Condition not met
C=CC(=O)N1CCC(c2nc(N(C)C)no2)CC1    Condition not met
C=CC(=O)NCc1nnc2ccccn12    Condition not met
C=CC(=O)NC1CCN(c2nc(C3CC3)cc(C(F)(F)F)n2)CC1    Condition not met
O=C(CCl)Nc1ccc(Cl)c(S(=O)(=O)N2CCCCC2)c1    Condition met
Cc1c(C#N)c(NC(=O)CCl)n(Cc2cccs2)c1C    Condition met
CC(Cl)C(=O)N(C)C1CCN(c2ccccn2)CC1 (centres unmarked)    Condition not met
COc1ccc(Cl)cc1CNC(=O)CCl    Condition met

(Q) Quick check: does Cc1noc(C23CC(CN2C(=O)C(C)Cl)C3)n1 (centres unmarked) have viability at 48 h, 25 µM under 90%?
(A) Condition not met

(Q) Quick check: does C=CC(=O)NCC(=C)c1ccccc1 [2-B09, N-(2-phenylprop-2-en-1-yl)prop-2-enamide] have viability at 48 h, 25 µM under 90%?
(A) Condition met

(Q) Quick check: does O=C(CCl)Nc1ccc(SC(F)F)cc1 have viability at 48 h, 25 µM under 90%?
(A) Condition met

(Q) Quick check: does Cc1cc(NS(=O)(=O)c2ccc(NC(=O)CCl)cc2)nc(C)n1 have viability at 48 h, 25 µM under 90%?
(A) Condition met

(Q) Quick check: does COc1ccccc1NC(=O)C(C#N)=Cc1sccc1C have viability at 48 h, 25 µM under 90%?
(A) Condition not met

(Q) Quick check: does C=CC(=O)N1CCC(C(=O)NCC(C)c2ncc(C)s2)CC1 (centres unmarked) have viability at 48 h, 25 µM under 90%?
(A) Condition met

Every entry's value here was drawn from paper PMC11995724.
